# Experimental details: Parallel artificial membrane permeability assay (PAMPA) for blood-brain barrier permeation, PSR4p analyzer
# Condition: pH 7.4 buffer, 18 h, ambient temperature; literature compounds; averaged
I'd be grateful if you could share measured Pe (linear velocity of permeation) for these entries.

Give recorded Pe (linear velocity of permeation). COc1ccc(CCN2CCC(Nc3nc4ccccc4n3Cc3ccc(F)cc3)CC2)cc1 10.66 10^−6 cm/s

Fill in reported Pe (linear velocity of permeation) for this entry: CN1C(C(=O)Nc2ccccn2)=C(O)c2ccccc2S1(=O)=O 2.53 10^−6 cm/s

Identify measured Pe (linear velocity of permeation) associated with CC(C)(C)c1ccc(C(O)CCCN2CCC(C(O)(c3ccccc3)c3ccccc3)CC2)cc1 (stereo not drawn) 0.00 10^−6 cm/s

Quick one: give measured Pe (linear velocity of permeation) for Cc1cc(NC(=O)C2=C(O)c3ccccc3S(=O)(=O)N2C)no1 0.25 10^−6 cm/s

Please give the documented Pe (linear velocity of permeation) of CN1C(C(=O)Nc2ccccn2)=C(O)c2sccc2S1(=O)=O 0.14 10^−6 cm/s

Item CN1C(=O)CC(=O)N(c2ccccc2)c2cc(Cl)ccc21 : provide Pe (linear velocity of permeation) 16.85 10^−6 cm/s

Look up and report measured Pe (linear velocity of permeation) for this entry: C[C@]12CCC(=O)C=C1CC[C@@H]1[C@@H]2[C@@H](O)C[C@]2(C=O)[C@@H](C(=O)CO)CC[C@@H]12 1.19 10^−6 cm/s

Provide Pe (linear velocity of permeation) value for the following compound: NCCc1ccc(O)c(O)c1 0.16 10^−6 cm/s

Determine its reported Pe (linear velocity of permeation): Cc1nnc2n1-c1ccc(Cl)cc1C(c1ccccc1)=NC2 5.44 10^−6 cm/s

Fill in reported Pe (linear velocity of permeation) for this entry: CN(C)C(=O)C(CCN1CCC(O)(c2ccc(Cl)cc2)CC1)(c1ccccc1)c1ccccc1 [Loperamide] 0.00 10^−6 cm/s

Give Pe (linear velocity of permeation) for the following compound: CN(C)CCCN1c2ccccc2Sc2ccc(Cl)cc21 6.36 10^−6 cm/s

Give the measured Pe (linear velocity of permeation) for CN(C)CCCN1c2ccccc2Sc2ccccc21 8.84 10^−6 cm/s

====

# Experimental details: Parallel artificial membrane permeability assay (PAMPA) for blood-brain barrier permeation, PSR4p analyzer
# Condition: pig, PAMPA, pH 7.4
# From the text: In actual practice, a solution of known concentration of a compound or mixture of compounds in a buffer solution is separated from a buffer solution containing 0% concentration of said compound or mixture of compounds by a porous filter membrane impregnated with a mixture of brain polar lipid extract and dodecane in such a way that the surface of each buffer solution is in contact with opposite sides of said impregnated membrane. […]
What Papp at 18 h, 25 µg/mL was measured for each of the following?

State, in one line, measured Papp at 18 h, 25 µg/mL of CCCC(C)C1(CC)C(=O)NC(=S)NC1=O (stereo not shown) > 4 ×10⁻⁶ cm/s

Answer with the recorded Papp at 18 h, 25 µg/mL for the molecule listed here: CC(C)(C)c1ccc(C(O)CCCN2CCC(C(O)(c3ccccc3)c3ccccc3)CC2)cc1 (stereo not shown) < 2 ×10⁻⁶ cm/s

Please give measured Papp at 18 h, 25 µg/mL of the following entry: CN(C)CCCN1c2ccccc2Sc2ccc(Cl)cc21 > 4 ×10⁻⁶ cm/s

Check the records and state Papp at 18 h, 25 µg/mL for COc1ccc(CCN2CCC(Nc3nc4ccccc4n3Cc3ccc(F)cc3)CC2)cc1 > 4 ×10⁻⁶ cm/s

Dear colleague, please send me the reported Papp at 18 h, 25 µg/mL for CN1C(=O)CC(=O)N(c2ccccc2)c2cc(Cl)ccc21 when you can. > 4 ×10⁻⁶ cm/s

Please list Papp at 18 h, 25 µg/mL recorded for the molecule Cc1cc(NC(=O)C2=C(O)c3ccccc3S(=O)(=O)N2C)no1 < 2 ×10⁻⁶ cm/s

Specify Papp at 18 h, 25 µg/mL for NCCc1ccc(O)c(O)c1 and stop. < 2 ×10⁻⁶ cm/s

Please indicate Papp at 18 h, 25 µg/mL recorded for CN1C(C(=O)Nc2ccccn2)=C(O)c2ccccc2S1(=O)=O < 2 ×10⁻⁶ cm/s

Find the measured Papp at 18 h, 25 µg/mL of Cc1nnc2n1-c1ccc(Cl)cc1C(c1ccccc1)=NC2 and report it. > 4 ×10⁻⁶ cm/s

Please report the measured Papp at 18 h, 25 µg/mL for CN(C)C(=O)C(CCN1CCC(O)(c2ccc(Cl)cc2)CC1)(c1ccccc1)c1ccccc1 [Loperamide] < 2 ×10⁻⁶ cm/s

// Input: CN(C)CCCN1c2ccccc2Sc2ccccc21 . Output its Papp at 18 h, 25 µg/mL only. > 4 ×10⁻⁶ cm/s

Input C[C@]12CCC(=O)C=C1CC[C@@H]1[C@@H]2[C@@H](O)C[C@]2(C=O)[C@@H](C(=O)CO)CC[C@@H]12 , output reported Papp at 18 h, 25 µg/mL. < 2 ×10⁻⁶ cm/s

Output measured Papp at 18 h, 25 µg/mL for this item: CN1C(C(=O)Nc2ccccn2)=C(O)c2sccc2S1(=O)=O < 2 ×10⁻⁶ cm/s

Entry source: patent US7060428B2
